assay: Caco-2 Permeability Assay; format: in vitro ADME, human; details: human, Caco-2, pH 7.4, donor 10 μM, 90 minutes, 37° C.; direction not given
So basically, if Papp at 90 min, 10 µM comes in under 20 ×10⁻⁶ cm/s it's y, and if it's 20 ×10⁻⁶ cm/s or more it's n.

Q: Below 20 ×10⁻⁶ cm/s on Papp at 90 min, 10 µM? Entry CC(C)OCCn1c(=S)[nH]c(=O)c2c1ccn2COCC[Si](C)(C)C [Example 72]
A: n

Q: Please give the result for CC(C)OCCn1c(=S)[nH]c(=O)c2c1ccn2COC(=O)[C@@H]1CCCN1C(=O)OC(C)(C)C [Example 1] too.
A: n

Q: Please give the result for CC(C)OCCn1c(=S)[nH]c(=O)c2c1ccn2COC(=O)C[C@H](NC(=O)CCCCCCCCCCC(=O)O)C(=O)O [Example 142] too.
A: y

Q: Please give the result for CC(C)OCCn1c(SCOCC[Si](C)(C)C)nc(=O)c2c1ccn2COCC[Si](C)(C)C [Example 73] too.
A: y

Q: Please give the result for CC(C)OCCn1c(=S)n(COCC[Si](C)(C)C)c(=O)c2c1ccn2COCC[Si](C)(C)C [Example 71] too.
A: y

Q: Please give the result for CC(C)OCCn1c(=S)[nH]c(=O)c2c1ccn2COP(=O)(O)O [Example 83] too.
A: y

Q: Please give the result for CC(C)OCCn1c(=S)[nH]c(=O)c2c1ccn2COC(=O)[C@@H]1CCC(=O)N1C(=O)OCc1ccccc1 [Example 4] too.
A: y

Q: Please give the result for CC(C)OCCn1c(=S)[nH]c(=O)c2c1ccn2COC(=O)CCCCNC(=O)OC(C)(C)C [Example 7] too.
A: y

Q: Please give the result for CC(C)OCCn1c(=S)[nH]c(=O)c2c1ccn2COC(=O)CCNC(=O)OC(C)(C)C [Example 6] too.
A: y

These measurements were taken from patent US20240067651A1.
